Settings: in acetone, 308.15 K
metric_name: solubility (mole fraction)
Reply with just the number.

Given the entry `Nc1cccnc1` , report its measured solubility (mole fraction).
0.38

----------
Details: in acetone, 298.15 K
metric_name: solubility (mole fraction)
Reply with just the number.

Given the entry `Nc1cccnc1` , report its measured solubility (mole fraction).
0.244

----------
Conditions: in acetone, 313.15 K
metric_name: solubility (mole fraction)
Reply with just the number.

Given the entry `Nc1cccnc1` , report its measured solubility (mole fraction).
0.468

----------
Settings: in acetone, 293.15 K
metric_name: solubility (mole fraction)
Reply with just the number.

Given the entry `Nc1cccnc1` , report its measured solubility (mole fraction).
0.194

----------
Conditions: in n-butyl acetate, 318.15 K
metric_name: solubility (mole fraction)
Reply with just the number.

Given the entry `Nc1cccnc1` , report its measured solubility (mole fraction).
0.77

----------
Conditions: in acetone, 288.15 K
metric_name: solubility (mole fraction)
Reply with just the number.

Given the entry `Nc1cccnc1` , report its measured solubility (mole fraction).
0.155

----------
Conditions: in n-butyl acetate, 298.15 K
metric_name: solubility (mole fraction)

Given the entry `Nc1cccnc1` , report its measured solubility (mole fraction).
0.537

----------
Settings: in n-butyl acetate, 323.15 K
metric_name: solubility (mole fraction)
Reply with just the number.

Given the entry `Nc1cccnc1` , report its measured solubility (mole fraction).
0.835

----------
Settings: in n-butyl acetate, 288.15 K
metric_name: solubility (mole fraction)
Reply with just the number.

Given the entry `Nc1cccnc1` , report its measured solubility (mole fraction).
0.432

----------
Details: in n-butyl acetate, 313.15 K
metric_name: solubility (mole fraction)
Reply with just the number.

Given the entry `Nc1cccnc1` , report its measured solubility (mole fraction).
0.712
